# Assay Procedure: amyloid nucleation score (Sup35N fusion, yeast selection) (log enrichment); library NNK1; higher = more nucleation; inactive = no reads after selection;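 also: zero at mode of non-aggregating sequences after 7 days selection at 30°C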
# class assignment by measured amyloid nucleation score: low = under -0.4, mid = from -0.4 up to 0.9, high = 0.9 and over

Consider the following illustrative entries.
Could you tell me which band HSKGYMARHDRAYGDSERVV belongs to?
mid

What do you have for VELSYCMQRMSARIQCGRKP ?
high

What do you have for WIMVFWEFVNLTCNNRILDN ?
low

What do you have for FWHPLG ?
mid

What do you have for FSARTTVENAEDRSFDNQLV ?
mid

Would you kindly look at the next entry?
Could you tell me which band WTAWADNSACSLCGQN belongs to?
mid

====

# Assay Procedure: amyloid nucleation score (Sup35N fusion, yeast selection) (log enrichment); library NNK3; higher = more nucleation; inactive = no reads after selection
// reported amyloid nucleation score for each item listed
Please give the numeric answer without any surrounding text.

Reference set (5 entries):
// lookup amyloid nucleation score for VENLHNHYQYVFKNGMCDG
0.263

What do you have for SAVRHRLWVVGLASTRLYEC ?
-0.24

What do you have for LFSICINICLY ?
1.79

What do you have for RAKVNSRGCEESFF ?
-0.007

What do you have for STLQVVEKPKIAPSLRCDSC ?
-0.169

Moving on to the next sequence.
// lookup amyloid nucleation score for NDFCLIYYICGS
0.743

====

// reported amyloid nucleation score for each item listed
# Assay Procedure: amyloid nucleation score (Sup35N fusion, yeast selection) (log enrichment); library NNK3; higher = more nucleation; inactive = no reads after selection
Please give the numeric answer without any surrounding text.

Reference set (3 entries):
// lookup amyloid nucleation score for MLNSLFAMNTILKW
0.876

What do you have for KARLLMWS ?
0.181

What do you have for GANFVCSVECRLVRRNSRYD ?
0.511

Moving on to the next sequence.
// lookup amyloid nucleation score for ILNTCYISHFPFQL
2.33

====

# Assay Procedure: amyloid nucleation score (Sup35N fusion, yeast selection) (log enrichment); library NNK2; higher = more nucleation; inactive = no reads after selection
Measured Attribute: amyloid nucleation score

Reference set (3 entries):
// lookup amyloid nucleation score for WRNLDLK
-0.562

What do you have for LFVLVREVNVLTFLCPSEDQ ?
8.52

What do you have for CLDVLLDKGSADIYFRQSSN ?
-1.06

More entries:
// lookup amyloid nucleation score for SNWNTTPVSPS
0.514

What do you have for SDCLGKSVVVYNLLGFGR ?
4.79

What do you have for KYVGWQYLSSCILGVFPLAG ?
0.151

What do you have for RMFIVHSCSTWLTNNGLNHM ?
5.32

What do you have for CVSVPFYQVCFVGPKMEPLG ?
0.636

What do you have for TLAWRSGTRRELKEECNGGW ?
1.19

====

// reported amyloid nucleation score for each item listed
# Assay Procedure: amyloid nucleation score (Sup35N fusion, yeast selection) (log enrichment); library NNK1; higher = more nucleation; inactive = no reads after selection
Please give the numeric answer without any surrounding text.

Reference set (4 entries):
// lookup amyloid nucleation score for VHSGNMMSNFGWAERLHKKA
-0.39

What do you have for FVLCFFLACGITRNGMPCMV ?
1.26

What do you have for WLPFLVFCRGESYYRLDRSS ?
2.42

What do you have for RVVRKPCFPGVGRILSADLA ?
0.958

More entries:
// lookup amyloid nucleation score for AFRRNSPVSWSRR
0.37

What do you have for MIRQYDCSVFKCRERYFWAF ?
0.675

Where do the numbers come from? From the supplement of paper PMC12042874.
